Origin of values: ChEMBL document CHEMBL2218924

studySystem: Serine/threonine-protein kinase WNK3 (Homo sapiens) (UniProt Q9BYP7)
Sequence (Q9BYP7 whole entry): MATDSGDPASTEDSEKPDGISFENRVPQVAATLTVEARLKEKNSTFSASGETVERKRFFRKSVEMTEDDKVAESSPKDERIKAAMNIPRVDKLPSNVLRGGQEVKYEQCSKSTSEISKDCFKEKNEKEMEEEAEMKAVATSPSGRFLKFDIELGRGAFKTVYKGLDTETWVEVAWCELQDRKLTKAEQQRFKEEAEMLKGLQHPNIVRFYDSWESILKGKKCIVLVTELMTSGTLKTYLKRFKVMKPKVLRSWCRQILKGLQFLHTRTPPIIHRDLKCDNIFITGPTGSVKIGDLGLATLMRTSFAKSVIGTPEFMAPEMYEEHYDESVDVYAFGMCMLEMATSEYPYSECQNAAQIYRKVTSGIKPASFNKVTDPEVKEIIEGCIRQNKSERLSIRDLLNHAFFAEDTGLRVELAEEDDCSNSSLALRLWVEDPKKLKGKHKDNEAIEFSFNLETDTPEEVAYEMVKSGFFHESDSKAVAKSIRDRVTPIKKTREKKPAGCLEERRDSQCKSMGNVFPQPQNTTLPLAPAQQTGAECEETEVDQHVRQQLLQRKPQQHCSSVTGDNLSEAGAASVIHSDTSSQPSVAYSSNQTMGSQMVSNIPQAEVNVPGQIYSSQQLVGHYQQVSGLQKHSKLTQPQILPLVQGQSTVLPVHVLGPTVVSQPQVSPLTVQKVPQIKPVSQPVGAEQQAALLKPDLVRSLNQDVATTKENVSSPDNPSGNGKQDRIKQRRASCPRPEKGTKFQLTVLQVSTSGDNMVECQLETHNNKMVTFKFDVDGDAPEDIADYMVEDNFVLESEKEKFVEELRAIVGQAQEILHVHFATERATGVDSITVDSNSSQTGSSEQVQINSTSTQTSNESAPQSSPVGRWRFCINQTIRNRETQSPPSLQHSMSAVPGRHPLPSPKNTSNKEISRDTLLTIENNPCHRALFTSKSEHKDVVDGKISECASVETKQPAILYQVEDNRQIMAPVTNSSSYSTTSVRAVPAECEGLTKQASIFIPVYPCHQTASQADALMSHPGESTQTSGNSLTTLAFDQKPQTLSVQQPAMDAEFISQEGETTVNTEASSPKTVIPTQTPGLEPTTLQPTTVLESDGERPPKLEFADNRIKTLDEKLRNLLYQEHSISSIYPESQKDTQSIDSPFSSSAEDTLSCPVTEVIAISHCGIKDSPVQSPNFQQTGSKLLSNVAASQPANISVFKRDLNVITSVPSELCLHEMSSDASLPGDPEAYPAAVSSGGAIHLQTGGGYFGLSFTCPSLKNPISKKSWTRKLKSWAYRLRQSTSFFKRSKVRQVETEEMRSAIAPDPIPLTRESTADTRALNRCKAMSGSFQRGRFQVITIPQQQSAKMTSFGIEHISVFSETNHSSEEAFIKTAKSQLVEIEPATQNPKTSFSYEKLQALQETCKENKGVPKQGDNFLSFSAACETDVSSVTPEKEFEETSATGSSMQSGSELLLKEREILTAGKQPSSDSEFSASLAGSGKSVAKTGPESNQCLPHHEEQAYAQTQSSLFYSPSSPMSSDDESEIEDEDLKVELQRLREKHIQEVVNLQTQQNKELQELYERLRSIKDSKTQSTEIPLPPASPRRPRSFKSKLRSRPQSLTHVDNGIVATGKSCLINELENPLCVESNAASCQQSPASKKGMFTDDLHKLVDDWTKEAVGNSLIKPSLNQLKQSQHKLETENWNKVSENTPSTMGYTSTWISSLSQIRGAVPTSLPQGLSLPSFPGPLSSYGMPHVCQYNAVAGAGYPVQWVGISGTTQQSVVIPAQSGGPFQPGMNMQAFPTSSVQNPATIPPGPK
setupConditions: at 10 µM
Description: Millipore: Percentage of residual kinase activity of WNK3 at 10uM relative to control. Control inhibitor: Phosphoric acid* at 0.3uM. Buffer: 8 mM MOPS pH 7.0, 0.2 mM EDTA
readout: residual activity (%)
The answer is to be given in %; state only the numeric part.

Reference set (2 entries):
| smilesEntry | outputUnit | residual activity |
| --- | --- | --- |
| CC(C)c1nn(-c2c(Cl)cccc2Cl)c2nc(Cc3ccc(OCCO)cc3)[nH]c(=O)c12 | % | 97 |
| Nc1ncnc2c1cnn2-c1ccccc1 | % | 92 |

Turning to the following compound.
Tell me its residual activity given O=C(c1ccccc1)c1ccc(N2CCOCC2)cc1O as the entry. 97

###

studySystem: Serine/threonine-protein kinase TAO1 (Homo sapiens) (UniProt Q7L7X3)
Sequence (Q7L7X3 whole entry): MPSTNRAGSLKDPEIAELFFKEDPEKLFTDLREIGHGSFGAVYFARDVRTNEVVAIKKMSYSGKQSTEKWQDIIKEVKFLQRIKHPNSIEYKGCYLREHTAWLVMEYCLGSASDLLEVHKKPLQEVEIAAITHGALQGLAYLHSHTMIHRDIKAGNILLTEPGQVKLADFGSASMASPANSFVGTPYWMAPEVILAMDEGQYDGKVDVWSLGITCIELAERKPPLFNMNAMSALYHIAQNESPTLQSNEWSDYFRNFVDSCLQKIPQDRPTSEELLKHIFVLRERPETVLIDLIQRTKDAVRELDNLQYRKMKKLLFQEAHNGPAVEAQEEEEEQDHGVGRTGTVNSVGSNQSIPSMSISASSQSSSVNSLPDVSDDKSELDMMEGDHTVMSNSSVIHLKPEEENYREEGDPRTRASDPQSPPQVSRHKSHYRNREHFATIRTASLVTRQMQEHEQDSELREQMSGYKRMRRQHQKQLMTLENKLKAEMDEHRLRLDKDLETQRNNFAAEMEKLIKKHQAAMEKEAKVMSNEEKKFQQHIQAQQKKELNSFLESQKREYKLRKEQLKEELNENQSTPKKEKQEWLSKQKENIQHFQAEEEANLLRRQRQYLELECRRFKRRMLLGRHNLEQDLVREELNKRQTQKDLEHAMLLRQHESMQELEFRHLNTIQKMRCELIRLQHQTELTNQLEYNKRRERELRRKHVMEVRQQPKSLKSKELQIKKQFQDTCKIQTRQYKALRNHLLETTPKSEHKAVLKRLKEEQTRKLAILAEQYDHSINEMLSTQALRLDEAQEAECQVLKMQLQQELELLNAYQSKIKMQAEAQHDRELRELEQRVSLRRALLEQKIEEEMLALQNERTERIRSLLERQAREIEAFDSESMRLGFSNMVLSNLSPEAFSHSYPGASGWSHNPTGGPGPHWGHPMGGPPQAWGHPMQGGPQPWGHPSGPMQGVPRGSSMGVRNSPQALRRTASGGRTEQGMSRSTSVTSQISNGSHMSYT
setupConditions: at 10 µM
# key: entry, value: residual activity
Please reply with the bare figure in % and do not write the unit itself.

Examples with their reported residual activity follow.
| smilesEntry | recordedResult |
| --- | --- |
| O=C1Cc2c([nH]c3ccc([N+](=O)[O-])cc23)-c2ccccc2N1 | 30 |
| CCCCc1c(-c2ccc(O)cc2)[nH]c2nccnc12 | 7 |
| COc1cc2c(cc1OC)-c1n[nH]c(Nc3cccc(F)c3)c1C2 | 61 |

Return value of residual activity for input CC(C)(C)n1nc(Cc2cccc3ccccc23)c2c(N)ncnc21 , no commentary. 50

Output residual activity of Fc1ccc(-c2nc3n(c2-c2ccncc2)CCS3)cc1 83

Give the reported value of residual activity for this record: CC(C)(C)c1nc2c3ccc(F)cc3c3c(=O)[nH]ccc3c2[nH]1 24

Fill in reported residual activity for this entry: O=c1cc(N2CCOCC2)oc2c1ccc1ccccc12 87

Quote residual activity reported for COc1cc2nccc(Oc3ccc(NC(=O)Nc4cc(C)on4)c(Cl)c3)c2cc1OC please. 52

# return recorded residual activity for input Nc1ncnc2c1c(-c1ccc(Oc3ccccc3)cc1)cn2C1CCCC1 81

Tell me its residual activity given CC(C)[C@H](CO)Nc1nc(Nc2cc(N)cc(Cl)c2)c2ncn(C(C)C)c2n1 as the entry. 52

Give recorded residual activity. N#Cc1c(NC(=O)c2cccc3ccccc23)sc2c1CCCC2 93
